method-summary: yeast V-ATPase proton transport modulators, S. cerevisiae, pHLuorin, HTS validation (AID 504600);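 also: plate controls were DMSO for no effect and reference compound for full effect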
settings: S. cerevisiae pHLuorin cytosolic pH, at 10 µM, stronger effect = higher value
Here, each record is paired with measured response data.

{"columns": ["compound", "unit", "response"],
 "data": [
  ["CCCCNc1cc(C(=O)O)cc(S(N)(=O)=O)c1Oc1ccccc1", "%", 10.1],
  ["CC(C)Cn1c(=S)[nH]c2cc(C(=O)O)ccc2c1=O", "%", -0.3],
  ["Cc1cnc(C(=O)N2CCCC(C(=O)c3ccc(Cl)cc3C)C2)cn1 (stereo not drawn)", "%", 2.89]
]}

###

method-summary: modulators of CIT2-GFP expression in yeast, confirmation, S. cerevisiae, GFP fusion, cherry picks, mother/daughter gates (AID 2274)
settings: S. cerevisiae CIT2-GFP strain, flow cytometry, 3 h; measured here: mother cell gate; at 10 µM; stronger effect = higher value
Here, each record is paired with measured GFP response, % of DMSO data.
observed-property: GFP response, % of DMSO (%)

{"columns": ["compound", "observed-property", "data-value"],
 "data": [
  ["CC1(C)CC(=O)C(C(C2=C(O)CC(C)(C)CC2=O)c2cccs2)C(=O)C1 (stereo not given)", "GFP response, % of DMSO", 99.1],
  ["Cc1ccc(NS(=O)(=O)c2ccc(CCC(=O)N3CCOCC3)cc2)cc1", "GFP response, % of DMSO", 101],
  ["CCCCNc1c(-c2ccc(SC(C)CC)cc2)nc2ccccn12 (stereo not given)", "GFP response, % of DMSO", 91.4],
  ["Cc1cccc(NC(=O)/C(C#N)=C/c2ccccc2Cl)n1", "GFP response, % of DMSO", 103],
  ["COC(=O)c1cccc(-n2c(CCC(=O)O)ccc2-c2cccs2)c1", "GFP response, % of DMSO", 97.7]
]}

###

method-summary: RPL19A-GFP modulators, yeast TOR pathway, confirmation, cell-based, S. cerevisiae, flow cytometry, cherry picks, mother/daughter gates (AID 2270)
settings: S. cerevisiae RPL19A-GFP strain, 3 h, measured here: daughter cell gate, at 10 µM, stronger effect = lower value, 100 = same GFP as DMSO wells
observed-property: GFP response vs DMSO (%)

{"columns": ["molecule", "data-value"],
 "data": [
  ["O=C1[C@@H]2C3C=CC(O3)[C@@H]2C(=O)N1c1ccccc1", 102],
  ["Cc1ccc(NS(=O)(=O)c2ccc(CCC(=O)N3CCOCC3)cc2)cc1", 94.6],
  ["CC(C)c1ccc(C2C3CSCC=C3C(C#N)=C(N)C2(C#N)C#N)cc1 (stereo not drawn)", 97.8]
]}

###

Here, each record is paired with measured GFP response relative to DMSO data.
method-summary: LAP4-GFP expression modulators in yeast, confirmation, cell-based, cherry picks, flow cytometry, mother/daughter gates (AID 2271);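 also: ratio of sample to DMSO plate mean so 100% equals DMSO level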
settings: S. cerevisiae LAP4-GFP strain, 3 h, measured here: daughter cell gate response, at 10 µM, stronger effect = higher value, 100 means same as DMSO control
observed-property: GFP response relative to DMSO (%)

{"columns": ["compound", "unit", "data-value"],
 "data": [
  ["CCCCc1[nH]nc2c1C1(C(=O)N(CC)c3ccccc31)C(C#N)=C(N)O2 (stereo not given)", "%", 97.5],
  ["O=[N+]([O-])c1cc(/C=N/O)ccc1Oc1ccccc1Cl", "%", 106],
  ["Cc1c(NC2=C(Cl)C(=O)N(c3ccccc3)C2=O)c(=O)n(-c2ccccc2)n1C", "%", 104],
  ["CCOC(=O)c1ccc(NC(=O)CCc2nc(-c3cccc(C)c3)no2)cc1", "%", 101],
  ["C[C@@H](C(=O)Nc1nc2ccc(F)cc2s1)N1C(=O)C2CC=CCC2C1=O (stereo not given in full)", "%", 101]
]}
